Assay: Example 11: plasma pharmacokinetics (toxicokinetics) of tozadenant in mice after twice daily oral administration
Format: in vivo, Crl:CD1(ICR) mice
Conditions: male, Crl:CD1(ICR), mouse, plasma, po, 100 mg/kg/day, mice, 100 mg/kg/day (50 mg/kg/dose×2) oral; 1 hour after the second dose; read-out: Average Tmax
Protocol: The plasma pharmacokinetics and exposure levels of tozadendant have been documented in mice after oral administration, the same route of administration as tozadenant was dosed in the oncology efficacy studies. […] Centrifugation was carried out at approximately 4-8° C. within one hour of collection. […] Samples were analyzed at Covance. Tozadenant was quantitated using protein precipitation followed by liquid chromatography mass spectrometry technique for quantification. […]
experimental.readout: Tmax (h)
Give bare numbers, in h.

I am curious: what Tmax value has been reported for COc1ccc(N2CCOCC2)c2sc(NC(=O)N3CCC(C)(O)CC3)nc12 [SYN-115] ?
9

Recorded values, source patent US20220088024A1.
